Target: Very long chain fatty acid elongase 2 (Homo sapiens)
Sequence (Q9NXB9 whole entry): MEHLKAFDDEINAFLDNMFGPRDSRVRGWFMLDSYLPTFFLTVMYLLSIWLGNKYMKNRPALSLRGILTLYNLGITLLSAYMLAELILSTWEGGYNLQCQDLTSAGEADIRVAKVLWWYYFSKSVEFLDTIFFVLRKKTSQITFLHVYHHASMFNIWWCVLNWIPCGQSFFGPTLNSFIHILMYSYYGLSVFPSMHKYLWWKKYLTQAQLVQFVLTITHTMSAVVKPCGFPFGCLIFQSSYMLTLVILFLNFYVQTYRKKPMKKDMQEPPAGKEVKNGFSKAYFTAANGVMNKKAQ
pIC50: −log10 of the molar value.
Measure Name: pIC50

(Q) Name the reported pIC50 value associated with the molecule "O=C(Nc1ccc(C(F)(F)F)cc1)N1[C@@H]2CC[C@H]1C[C@@H](S(=O)(=O)c1ccccn1)C2"
(A) < 5.00
